Provenance of the data: paper PMC9116130

TEST SYSTEM: hNaV1.5 (Homo sapiens)
MEASUREMENT DESCRIPTION: Two-electrode voltage-clamp on Xenopus laevis oocytes expressing NaV1.5
MEASUREMENT PARAMETERS: read-out: Maximum % inhibition NaV1.5
Where a SMILES comes first, the peptide text is derived from it. Bridges are numbered along the chain shown (N, C = ends).
PROPERTY MEASURED: inhibition at 100 µM (%)
Numbers only, in %.

Guide cases for inhibition at 100 µM, answers given:
C[C@@H]1NC(=O)[C@H](CC(N)=O)NC(=O)[C@H](Cc2c[nH]c3ccccc23)NC(=O)[C@H](CCCNC(=N)N)NC(=O)[C@H](C)NC(=O)[C@H](Cc2c[nH]c3ccccc23)NC(=O)[C@H](CCCNC(=N)N)NC(=O)[C@H](CCCNC(=N)N)NC(=O)[C@@H](N)CSSC[C@@H](C(N)=O)NC1=O [PnCS1[R9A], CRRWARWNAC ^*] (H-CRRWARWNAC-NH2; disulfide 1-10) = 72
CC(=O)N[C@H]1CSSC[C@@H](C(=O)O)NC(=O)[C@H](CCCNC(=N)N)NC(=O)[C@H](CC(N)=O)NC(=O)[C@H](Cc2c[nH]c3ccccc23)NC(=O)[C@H](CCCNC(=N)N)NC(=O)[C@H](C)NC(=O)[C@H](Cc2c[nH]c3ccccc23)NC(=O)[C@H](CCCNC(=N)N)NC(=O)[C@H](CCCNC(=N)N)NC1=O [PnCS1Ac, Ac-CRRWARWNRC] (Ac-CRRWARWNRC-OH; disulfide 1-10) = 0

Now turn to the next molecule.
Q: # get_value(readout= inhibition at 100 µM, system= hNaV1.5 (Homo sapiens)) for C[C@@H]1NC(=O)[C@H](Cc2c[nH]c3ccccc23)NC(=O)[C@H](CCCNC(=N)N)NC(=O)[C@H](CCCNC(=N)N)NC(=O)[C@@H](N)CSSC[C@@H](C(N)=O)NC(=O)[C@H](CCC(=O)O)NC(=O)[C@H](CC(N)=O)NC(=O)[C@H](Cc2c[nH]c3ccccc23)NC(=O)[C@H](CCCNC(=N)N)NC1=O [PnCS1[R9E], CRRWARWNEC ^*] (H-CRRWARWNEC-NH2; disulfide 1-10)
Result: 40

----------
Where a SMILES comes first, the peptide text is derived from it. Bridges are numbered along the chain shown (N, C = ends).
pIC50 tested on hNaV1.5 (Homo sapiens, UniProt Q14524): recorded values
Sequence (Q14524 whole entry): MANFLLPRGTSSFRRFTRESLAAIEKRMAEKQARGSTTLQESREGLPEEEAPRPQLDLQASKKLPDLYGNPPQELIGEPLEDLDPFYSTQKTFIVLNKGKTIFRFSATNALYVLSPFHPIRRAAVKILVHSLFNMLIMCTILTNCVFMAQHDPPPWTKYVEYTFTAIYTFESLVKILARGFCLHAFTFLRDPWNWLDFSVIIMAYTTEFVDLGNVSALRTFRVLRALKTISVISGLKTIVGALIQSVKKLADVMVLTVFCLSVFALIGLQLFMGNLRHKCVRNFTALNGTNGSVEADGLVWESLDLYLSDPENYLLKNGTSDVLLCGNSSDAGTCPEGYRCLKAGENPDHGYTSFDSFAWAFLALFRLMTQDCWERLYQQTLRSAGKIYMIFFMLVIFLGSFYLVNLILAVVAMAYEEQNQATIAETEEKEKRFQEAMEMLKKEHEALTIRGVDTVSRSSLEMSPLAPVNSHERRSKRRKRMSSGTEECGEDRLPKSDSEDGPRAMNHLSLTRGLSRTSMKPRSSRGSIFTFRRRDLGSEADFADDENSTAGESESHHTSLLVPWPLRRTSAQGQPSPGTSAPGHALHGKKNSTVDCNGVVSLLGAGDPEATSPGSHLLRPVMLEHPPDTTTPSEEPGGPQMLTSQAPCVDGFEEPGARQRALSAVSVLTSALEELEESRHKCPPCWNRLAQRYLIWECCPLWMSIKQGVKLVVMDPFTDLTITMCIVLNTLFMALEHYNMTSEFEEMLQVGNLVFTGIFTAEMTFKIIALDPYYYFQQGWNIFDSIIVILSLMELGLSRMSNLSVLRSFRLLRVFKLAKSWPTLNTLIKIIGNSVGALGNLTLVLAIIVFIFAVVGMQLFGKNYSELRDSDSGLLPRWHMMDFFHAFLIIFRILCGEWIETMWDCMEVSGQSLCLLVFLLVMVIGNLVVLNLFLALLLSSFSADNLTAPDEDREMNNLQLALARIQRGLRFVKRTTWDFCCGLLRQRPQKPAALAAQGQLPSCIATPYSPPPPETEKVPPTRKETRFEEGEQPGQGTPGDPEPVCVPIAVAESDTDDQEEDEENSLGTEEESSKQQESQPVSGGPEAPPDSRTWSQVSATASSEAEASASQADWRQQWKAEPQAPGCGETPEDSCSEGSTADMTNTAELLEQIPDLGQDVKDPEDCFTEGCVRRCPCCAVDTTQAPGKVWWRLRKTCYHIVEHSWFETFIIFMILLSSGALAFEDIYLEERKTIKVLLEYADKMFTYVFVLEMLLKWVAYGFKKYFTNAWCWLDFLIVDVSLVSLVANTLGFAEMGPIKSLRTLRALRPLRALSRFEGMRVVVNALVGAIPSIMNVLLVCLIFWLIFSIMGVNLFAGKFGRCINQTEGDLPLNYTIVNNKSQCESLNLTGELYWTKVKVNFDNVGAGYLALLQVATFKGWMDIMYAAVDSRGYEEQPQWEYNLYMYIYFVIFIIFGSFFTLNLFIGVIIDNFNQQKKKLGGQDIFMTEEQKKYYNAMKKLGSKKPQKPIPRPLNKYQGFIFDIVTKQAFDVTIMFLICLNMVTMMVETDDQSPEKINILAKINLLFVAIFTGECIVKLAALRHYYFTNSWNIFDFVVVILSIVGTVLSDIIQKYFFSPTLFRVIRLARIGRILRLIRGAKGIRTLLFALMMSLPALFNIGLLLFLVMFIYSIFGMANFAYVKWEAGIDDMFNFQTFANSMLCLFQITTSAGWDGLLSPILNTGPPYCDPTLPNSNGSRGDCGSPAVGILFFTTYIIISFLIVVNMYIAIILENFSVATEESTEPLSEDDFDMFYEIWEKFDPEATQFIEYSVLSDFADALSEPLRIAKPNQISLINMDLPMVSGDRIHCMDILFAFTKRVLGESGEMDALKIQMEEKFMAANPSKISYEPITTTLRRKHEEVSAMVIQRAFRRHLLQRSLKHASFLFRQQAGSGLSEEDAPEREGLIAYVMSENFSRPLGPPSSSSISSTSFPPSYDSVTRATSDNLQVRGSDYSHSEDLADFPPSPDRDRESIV
Give bare numbers, as −log10 of the molar value.

C[C@@H]1NC(=O)[C@H](Cc2c[nH]c3ccccc23)NC(=O)[C@H](CCCNC(=N)N)NC(=O)[C@H](C)NC(=O)[C@H](Cc2c[nH]c3ccccc23)NC(=O)[C@H](CCCNC(=N)N)NC(=O)[C@H](CCCNC(=N)N)NC(=O)[C@@H](N)CSSC[C@@H](C(N)=O)NC(=O)[C@H](CCCNC(=N)N)NC1=O [PnCS1[N8A], CRRWARWARC ^*] (H-CRRWARWARC-NH2; disulfide 1-10) = 5.66

Now turn to the next molecule.
Q: Looking for the measured pIC50 of C[C@@H]1NC(=O)[C@H](Cc2c[nH]c3ccccc23)NC(=O)[C@H](CCCNC(=N)N)NC(=O)[C@H](CCCCN)NC(=O)[C@@H](N)CSSC[C@@H](C(N)=O)NC(=O)[C@H](CCCNC(=N)N)NC(=O)[C@H](CC(N)=O)NC(=O)[C@H](Cc2c[nH]c3ccccc23)NC(=O)[C@H](CCCNC(=N)N)NC1=O [PnCS1[R2K], CKRWARWNRC ^*] (H-CKRWARWNRC-NH2; disulfide 1-10) , can you help?
Result: 5.60

----------
TEST SYSTEM: mNaV1.6 (Mus musculus, UniProt Q9WTU3)
MEASUREMENT DESCRIPTION: Two-electrode voltage-clamp on Xenopus laevis oocytes expressing NaV1.6
Where a SMILES comes first, the peptide text is derived from it. Bridges are numbered along the chain shown (N, C = ends).
PROPERTY MEASURED: pIC50
Numbers only, as −log10 of the molar value.

C[C@@H]1NC(=O)[C@H](CCC(=O)O)NC(=O)[C@H](CCCNC(=N)N)NC(=O)[C@H](CCCNC(=N)N)NC(=O)[C@@H](N)CSSC[C@@H](C(N)=O)NC(=O)[C@H](CCCNC(=N)N)NC(=O)[C@H](CC(N)=O)NC(=O)[C@H](Cc2c[nH]c3ccccc23)NC(=O)[C@H](CCCNC(=N)N)NC1=O [PnCS1[W4E], CRREARWNRC ^*] (H-CRREARWNRC-NH2; disulfide 1-10) = 4.83
C[C@@H]1NC(=O)[C@H](Cc2c[nH]c3ccccc23)NC(=O)[C@H](CCCNC(=N)N)NC(=O)[C@H](C)NC(=O)[C@@H](N)CSSC[C@@H](C(N)=O)NC(=O)[C@H](CCCNC(=N)N)NC(=O)[C@H](CC(N)=O)NC(=O)[C@H](Cc2c[nH]c3ccccc23)NC(=O)[C@H](CCCNC(=N)N)NC1=O [PnCS1[R2A], CARWARWNRC ^*] (H-CARWARWNRC-NH2; disulfide 1-10) = 5.80
C[C@@H]1NC(=O)[C@H](Cc2c[nH]c3ccccc23)NC(=O)[C@H](CCCNC(=N)N)NC(=O)[C@H](CCCNC(=N)N)NC(=O)[C@@H](N)CSSC[C@@H](C(N)=O)NC(=O)[C@H](CCCNC(=N)N)NC(=O)[C@H](CC(N)=O)NC(=O)[C@H](Cc2ccc(O)cc2)NC(=O)[C@H](CCCNC(=N)N)NC1=O [PnCS1[W7Y], CRRWARYNRC ^*] (H-CRRWARYNRC-NH2; disulfide 1-10) = 6.15
C[C@@H]1NC(=O)[C@H](Cc2c[nH]c3ccccc23)NC(=O)[C@H](CCCNC(=N)N)NC(=O)[C@H](CCCCN)NC(=O)[C@@H](N)CSSC[C@@H](C(N)=O)NC(=O)[C@H](CCCNC(=N)N)NC(=O)[C@H](CC(N)=O)NC(=O)[C@H](Cc2c[nH]c3ccccc23)NC(=O)[C@H](CCCNC(=N)N)NC1=O [PnCS1[R2K], CKRWARWNRC ^*] (H-CKRWARWNRC-NH2; disulfide 1-10) = 6.22
C[C@@H]1NC(=O)[C@H](Cc2c[nH]c3ccccc23)NC(=O)[C@H](CCCNC(=N)N)NC(=O)[C@H](CCCNC(=N)N)NC(=O)[C@@H](N)CSSC[C@@H](C(N)=O)NC(=O)[C@H](CCCCN)NC(=O)[C@H](CC(N)=O)NC(=O)[C@H](Cc2c[nH]c3ccccc23)NC(=O)[C@H](CCCNC(=N)N)NC1=O [PnCS1[R9K], CRRWARWNKC ^*] (H-CRRWARWNKC-NH2; disulfide 1-10) = 5.17
C[C@@H]1NC(=O)[C@H](Cc2c[nH]c3ccccc23)NC(=O)[C@H](CCCNC(=N)N)NC(=O)[C@H](CCCNC(=N)N)NC(=O)[C@@H](N)CSSC[C@@H](C(N)=O)NC(=O)[C@H](CCCNC(=N)N)NC(=O)[C@H](CC(N)=O)NC(=O)[C@H](CCCCN)NC(=O)[C@H](CCCNC(=N)N)NC1=O [PnCS1[W7K], CRRWARKNRC ^*] (H-CRRWARKNRC-NH2; disulfide 1-10) = 5.09

Now turn to the next molecule.
Q: Looking for the measured pIC50 of C[C@@H]1NC(=O)[C@H](C)NC(=O)[C@H](Cc2c[nH]c3ccccc23)NC(=O)[C@H](CCCNC(=N)N)NC(=O)[C@H](CCCNC(=N)N)NC(=O)[C@@H](N)CSSC[C@@H](C(N)=O)NC(=O)[C@H](CCCNC(=N)N)NC(=O)[C@H](CC(N)=O)NC(=O)[C@H](Cc2c[nH]c3ccccc23)NC1=O [PnCS1[R6A], CRRWAAWNRC ^*] (H-CRRWAAWNRC-NH2; disulfide 1-10) , can you help?
Result: 6.05

----------
Kindly supply the reported pIC50 values for the records listed here.
TEST SYSTEM: rNaV1.2 (Rattus norvegicus)
Sequence (P04775 whole entry): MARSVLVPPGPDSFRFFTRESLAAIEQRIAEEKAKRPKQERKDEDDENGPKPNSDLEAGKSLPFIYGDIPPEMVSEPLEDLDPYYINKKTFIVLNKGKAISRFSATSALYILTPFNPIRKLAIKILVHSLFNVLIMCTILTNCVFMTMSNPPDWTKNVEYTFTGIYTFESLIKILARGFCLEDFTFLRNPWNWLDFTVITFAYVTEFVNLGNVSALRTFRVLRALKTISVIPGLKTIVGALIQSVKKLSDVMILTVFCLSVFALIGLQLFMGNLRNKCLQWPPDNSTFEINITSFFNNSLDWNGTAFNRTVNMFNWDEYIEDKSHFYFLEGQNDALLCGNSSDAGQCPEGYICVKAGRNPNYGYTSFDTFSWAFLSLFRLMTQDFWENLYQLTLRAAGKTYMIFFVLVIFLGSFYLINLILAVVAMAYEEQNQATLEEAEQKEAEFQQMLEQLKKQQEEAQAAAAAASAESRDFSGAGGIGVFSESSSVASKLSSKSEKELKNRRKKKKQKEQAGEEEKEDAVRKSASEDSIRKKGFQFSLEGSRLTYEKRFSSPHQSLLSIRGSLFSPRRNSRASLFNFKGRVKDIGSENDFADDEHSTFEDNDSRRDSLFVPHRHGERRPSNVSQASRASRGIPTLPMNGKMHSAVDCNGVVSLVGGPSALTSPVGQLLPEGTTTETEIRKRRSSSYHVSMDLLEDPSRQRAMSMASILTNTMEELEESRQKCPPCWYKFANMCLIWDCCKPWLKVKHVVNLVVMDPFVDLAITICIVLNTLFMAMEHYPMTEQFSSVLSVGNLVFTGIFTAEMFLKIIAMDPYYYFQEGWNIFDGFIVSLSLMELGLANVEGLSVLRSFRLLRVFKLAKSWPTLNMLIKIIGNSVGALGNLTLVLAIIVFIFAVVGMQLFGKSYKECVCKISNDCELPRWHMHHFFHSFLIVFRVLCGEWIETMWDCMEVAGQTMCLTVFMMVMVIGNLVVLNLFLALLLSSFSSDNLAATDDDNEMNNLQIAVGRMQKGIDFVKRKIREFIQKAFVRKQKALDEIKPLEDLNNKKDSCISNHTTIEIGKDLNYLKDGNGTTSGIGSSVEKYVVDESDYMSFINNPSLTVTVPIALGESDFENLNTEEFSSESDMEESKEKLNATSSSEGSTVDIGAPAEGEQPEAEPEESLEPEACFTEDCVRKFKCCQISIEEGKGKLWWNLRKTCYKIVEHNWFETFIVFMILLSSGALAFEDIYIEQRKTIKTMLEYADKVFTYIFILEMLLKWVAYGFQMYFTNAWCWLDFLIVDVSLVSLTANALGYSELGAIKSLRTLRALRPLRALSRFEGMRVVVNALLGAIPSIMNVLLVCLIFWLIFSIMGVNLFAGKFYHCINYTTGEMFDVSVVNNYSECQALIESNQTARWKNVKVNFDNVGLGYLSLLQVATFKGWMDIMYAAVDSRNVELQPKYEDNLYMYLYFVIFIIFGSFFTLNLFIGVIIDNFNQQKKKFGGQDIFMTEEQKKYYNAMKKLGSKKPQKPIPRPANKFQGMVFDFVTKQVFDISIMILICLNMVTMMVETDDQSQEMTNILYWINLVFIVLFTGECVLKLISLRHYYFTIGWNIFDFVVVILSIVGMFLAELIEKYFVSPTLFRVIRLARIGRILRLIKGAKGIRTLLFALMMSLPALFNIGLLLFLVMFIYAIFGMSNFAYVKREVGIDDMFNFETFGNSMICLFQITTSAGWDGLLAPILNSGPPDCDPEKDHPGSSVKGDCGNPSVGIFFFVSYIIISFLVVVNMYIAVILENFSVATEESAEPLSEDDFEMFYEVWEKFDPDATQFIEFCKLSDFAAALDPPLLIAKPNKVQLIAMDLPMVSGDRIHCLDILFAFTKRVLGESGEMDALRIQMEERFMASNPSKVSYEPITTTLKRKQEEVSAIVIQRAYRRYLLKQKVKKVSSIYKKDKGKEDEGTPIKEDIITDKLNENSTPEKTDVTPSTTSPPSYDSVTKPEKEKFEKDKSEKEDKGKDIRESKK
Sequence (Q00954 19-218, further chain): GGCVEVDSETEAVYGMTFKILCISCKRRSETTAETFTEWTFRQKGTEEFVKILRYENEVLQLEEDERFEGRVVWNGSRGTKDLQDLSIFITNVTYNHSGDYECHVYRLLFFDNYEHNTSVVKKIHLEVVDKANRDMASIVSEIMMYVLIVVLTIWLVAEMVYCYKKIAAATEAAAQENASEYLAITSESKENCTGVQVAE
MEASUREMENT DESCRIPTION: Two-electrode voltage-clamp on Xenopus laevis oocytes expressing NaV1.2
Where a SMILES comes first, the peptide text is derived from it. Bridges are numbered along the chain shown (N, C = ends).
Numbers only, as −log10 of the molar value.

C[C@@H]1NC(=O)[C@H](Cc2c[nH]c3ccccc23)NC(=O)[C@H](CCCNC(=N)N)NC(=O)[C@H](CCCCN)NC(=O)[C@@H](N)CSSC[C@@H](C(N)=O)NC(=O)[C@H](CCCNC(=N)N)NC(=O)[C@H](CC(N)=O)NC(=O)[C@H](Cc2c[nH]c3ccccc23)NC(=O)[C@H](CCCNC(=N)N)NC1=O [PnCS1[R2K], CKRWARWNRC ^*] (H-CKRWARWNRC-NH2; disulfide 1-10) = 5.96
C[C@@H]1NC(=O)[C@H](Cc2c[nH]c3ccccc23)NC(=O)[C@H](CCCNC(=N)N)NC(=O)[C@H](CCCNC(=N)N)NC(=O)[C@@H](N)CSSC[C@@H](C(N)=O)NC(=O)[C@H](CCCCN)NC(=O)[C@H](CC(N)=O)NC(=O)[C@H](Cc2c[nH]c3ccccc23)NC(=O)[C@H](CCCNC(=N)N)NC1=O [PnCS1[R9K], CRRWARWNKC ^*] (H-CRRWARWNKC-NH2; disulfide 1-10) = 4.99

Now turn to the next compound.
Q: Looking for the measured pIC50 of C[C@@H]1NC(=O)[C@H](Cc2c[nH]c3ccccc23)NC(=O)[C@H](CCCNC(=N)N)NC(=O)[C@H](CCCNC(=N)N)NC(=O)[C@@H](N)CSSC[C@@H](C(N)=O)NC(=O)[C@H](CCCNC(=N)N)NC(=O)[C@H](CC(N)=O)NC(=O)[C@H](CCCCN)NC(=O)[C@H](CCCNC(=N)N)NC1=O [PnCS1[W7K], CRRWARKNRC ^*] (H-CRRWARKNRC-NH2; disulfide 1-10) , can you help?
Result: 5.55
